The measurements presented in this section are drawn from paper PMC11643494.

Target: WT human SLACK (Homo sapiens)
Construct: host or cells: CHO-K1
Sequence (Q5JUK3 1-1235 isoform Q5JUK3-3): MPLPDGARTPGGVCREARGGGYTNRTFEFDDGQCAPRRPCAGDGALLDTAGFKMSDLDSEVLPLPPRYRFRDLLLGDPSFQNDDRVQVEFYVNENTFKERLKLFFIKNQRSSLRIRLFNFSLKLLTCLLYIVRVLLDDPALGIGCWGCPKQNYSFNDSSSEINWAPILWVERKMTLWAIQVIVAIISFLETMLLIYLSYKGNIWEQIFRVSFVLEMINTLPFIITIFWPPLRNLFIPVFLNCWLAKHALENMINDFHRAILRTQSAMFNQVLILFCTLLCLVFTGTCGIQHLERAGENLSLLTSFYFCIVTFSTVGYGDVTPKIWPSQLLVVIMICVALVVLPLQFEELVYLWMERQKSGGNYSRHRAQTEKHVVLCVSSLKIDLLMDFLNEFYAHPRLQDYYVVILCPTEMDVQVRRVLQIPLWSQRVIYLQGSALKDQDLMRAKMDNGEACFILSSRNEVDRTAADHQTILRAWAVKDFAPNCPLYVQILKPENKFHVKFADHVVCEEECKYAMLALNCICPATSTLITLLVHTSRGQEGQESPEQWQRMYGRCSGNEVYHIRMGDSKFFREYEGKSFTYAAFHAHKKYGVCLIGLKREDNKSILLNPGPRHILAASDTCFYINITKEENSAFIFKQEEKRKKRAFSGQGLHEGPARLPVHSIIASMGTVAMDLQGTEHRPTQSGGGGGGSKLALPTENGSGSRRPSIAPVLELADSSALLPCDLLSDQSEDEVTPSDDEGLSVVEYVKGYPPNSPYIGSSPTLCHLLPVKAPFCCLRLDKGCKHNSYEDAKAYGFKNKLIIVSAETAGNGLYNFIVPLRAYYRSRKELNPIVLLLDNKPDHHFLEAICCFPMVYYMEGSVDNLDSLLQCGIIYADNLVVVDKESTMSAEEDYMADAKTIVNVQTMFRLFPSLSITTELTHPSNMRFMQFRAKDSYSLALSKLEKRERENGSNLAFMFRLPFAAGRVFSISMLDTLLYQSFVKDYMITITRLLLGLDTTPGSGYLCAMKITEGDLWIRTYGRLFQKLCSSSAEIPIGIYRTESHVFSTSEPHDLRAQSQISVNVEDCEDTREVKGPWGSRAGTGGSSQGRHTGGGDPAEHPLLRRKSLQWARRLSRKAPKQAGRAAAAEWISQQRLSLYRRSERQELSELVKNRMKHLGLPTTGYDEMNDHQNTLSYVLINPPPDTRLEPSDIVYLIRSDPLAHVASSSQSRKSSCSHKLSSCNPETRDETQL
Assay: Whole-cell automated patch clamp (APC) in CHO-K1 cells stably expressing WT human SLACK
Format: cell-based
Details: maximum inhibition at 30 µM test compound standardized to VU0606170 (set at 100%); WT human SLACK
measurement.name: SLACK Imax (%)

INSERT INTO measurements (molecule, readout_value) VALUES
  ('CN(c1ccc(S(C)(=O)=O)cc1)c1ncc(NC(=O)C(C)(C)Oc2ccc(Cl)cc2)cn1 [Analog 67]', 101);

A. CC(C)(Oc1ccc(Cl)cc1)C(=O)Nc1cnc(Oc2cccc(C(F)(F)F)c2)nc1 [Analog 25]
B. CC(C)(Oc1ccc(Cl)cc1)C(=O)Nc1ccc(Oc2ccccc2F)cn1 [Analog 89]
Exercise: Sort A and B by SLACK Imax descending and give the first. Please indicate the selected item by its label.
Solution: A
